- Species on record: Rattus norvegicus
- assay protocol: Open TG-GATES - Regimen: Single
- Assay type: toxicity, organism-based, Sprague-Dawley
- Parameters: regimen Single, gender Male, age 6 weeks
- test parameters: in vivo, po, 0 mg/kg, 9 h, tissue Plasma, route gavage, dose level Control
Exam item: assign Fulfilled to entries whose IP is below 10 mg/dL and Not fulfilled to entries at or above 10 mg/dL. Note that a value of exactly 10 mg/dL receives Not fulfilled.

Solved entries (count: 2):
Cc1cccc(Nc2ccccc2C(=O)O)c1C :: Fulfilled
CC(=O)Nc1nnc(S(N)(=O)=O)s1 [ACETAZOLAMIDE] :: Fulfilled

INPUT: Problem: For the molecule CN(C)[C@@H]1C(O)=C(C(N)=O)C(=O)[C@@]2(O)C(O)=C3C(=O)c4c(O)cccc4[C@@](C)(O)[C@H]3C[C@@H]12 , is IP under 10 mg/dL?
OUTPUT: Not fulfilled

INPUT: Problem: For the molecule C1CCC(C(CC2CCCCN2)C2CCCCC2)CC1 (stereo not given) , is IP under 10 mg/dL?
OUTPUT: Fulfilled

INPUT: Problem: For the molecule Clc1c(Cl)c(Cl)c(Cl)c(Cl)c1Cl , is IP under 10 mg/dL?
OUTPUT: Not fulfilled

INPUT: Problem: For the molecule CN1C(C(=O)Nc2ccccn2)=C(O)c2sc(Cl)cc2S1(=O)=O , is IP under 10 mg/dL?
OUTPUT: Fulfilled

====

- Organism: Rattus norvegicus
- assay protocol: Open TG-GATES - Regimen: Single
- Assay type: toxicity, organism-based, Sprague-Dawley
- Design: regimen Single, gender Male, age 6 weeks
- test parameters: in vivo, po, 0 mg/kg, 3 h, tissue Plasma, route gavage, dose level Control
recorded metric: IP (mg/dL)
Respond numerically; units are mg/dL and should not be typed.

Reference set (2 entries):
CN(C)[C@@H]1C(O)=C(C(N)=O)C(=O)[C@@]2(O)C(O)=C3C(=O)c4c(O)cccc4[C@@](C)(O)[C@H]3C[C@@H]12 :: 10.2
COc1cc([C@@H]2c3cc4c(cc3[C@@H](O[C@@H]3O[C@@H]5CO[C@@H](C)O[C@H]5[C@H](O)[C@H]3O)[C@H]3COC(=O)[C@H]23)OCO4)cc(OC)c1O [ETOPOSIDE] :: 9.1

The recorded IP for CCOC(=O)[C@H](CCc1ccccc1)N[C@@H](C)C(=O)N1CCC[C@H]1C(=O)O is 10.2

====

- Species on record: Rattus norvegicus
- assay protocol: Open TG-GATES - Regimen: Single
- Assay type: toxicity, organism-based, Sprague-Dawley
- Set-up: regimen Single, gender Male, age 6 weeks
- test parameters: in vivo, po, 0 mg/kg, 3 h, tissue Kidney, route gavage, dose level Control
# reported KIDNEY_R; entries follow
Respond numerically; units are g and should not be typed.

Reference set (4 entries):
CN(C)[C@@H]1C(O)=C(C(N)=O)C(=O)[C@@]2(O)C(O)=C3C(=O)c4c(O)cccc4[C@@](C)(O)[C@H]3C[C@@H]12 :: 0.9
CN1C(C(=O)Nc2ccccn2)=C(O)c2sc(Cl)cc2S1(=O)=O :: 1
CC(=O)Nc1nnc(S(N)(=O)=O)s1 [ACETAZOLAMIDE] :: 0.9
C#C[C@]1(O)CC[C@H]2[C@@H]3CCC4=Cc5oncc5C[C@]4(C)[C@H]3CC[C@@]21C :: 0.9

The recorded KIDNEY_R for C1CCC(C(CC2CCCCN2)C2CCCCC2)CC1 (stereo not given) is 0.9

The recorded KIDNEY_R for COc1cc([C@@H]2c3cc4c(cc3[C@@H](O[C@@H]3O[C@@H]5CO[C@@H](C)O[C@H]5[C@H](O)[C@H]3O)[C@H]3COC(=O)[C@H]23)OCO4)cc(OC)c1O [ETOPOSIDE] is 1

The recorded KIDNEY_R for Clc1c(Cl)c(Cl)c(Cl)c(Cl)c1Cl is 1

====

- Organism: Rattus norvegicus
- assay protocol: Open TG-GATES - Regimen: Single
- Format: toxicity, organism-based, Sprague-Dawley
- Design: regimen Single, gender Male, age 6 weeks
- test parameters: in vivo, po, 0 mg/kg, 24 h, tissue Plasma, route gavage, dose level Control
recorded metric: AST (IU/L)
Respond numerically; units are IU/L and should not be typed.

Reference set (4 entries):
C1CCC(C(CC2CCCCN2)C2CCCCC2)CC1 (stereo not drawn) :: 66.4
CN1C(C(=O)Nc2ccccn2)=C(O)c2sc(Cl)cc2S1(=O)=O :: 65.8
CN(C)[C@@H]1C(O)=C(C(N)=O)C(=O)[C@@]2(O)C(O)=C3C(=O)c4c(O)cccc4[C@@](C)(O)[C@H]3C[C@@H]12 :: 76.6
O=[N+]([O-])c1ccc2c(c1)Cc1ccccc1-2 :: 69.6

Let us move to another entry and its AST.
The recorded AST for COc1cc([C@@H]2c3cc4c(cc3[C@@H](O[C@@H]3O[C@@H]5CO[C@@H](C)O[C@H]5[C@H](O)[C@H]3O)[C@H]3COC(=O)[C@H]23)OCO4)cc(OC)c1O [ETOPOSIDE] is 68.2

====

# reported Plat; entries follow
- Organism: Rattus norvegicus
- assay protocol: Open TG-GATES - Regimen: Daily Repeat
- Type: toxicity, organism-based, Sprague-Dawley
- Design: regimen Daily Repeat, gender Male, age 6 weeks
- test parameters: in vivo, po, 0 mg/kg, […], tissue Blood, route gavage, dose level Control, time 28 day
Respond numerically; units are x10_4/uL and should not be typed.

Reference set (8 entries):
Clc1c(Cl)c(Cl)c(Cl)c(Cl)c1Cl :: 97.1
CN(C)[C@@H]1C(O)=C(C(N)=O)C(=O)[C@@]2(O)C(O)=C3C(=O)c4c(O)cccc4[C@@](C)(O)[C@H]3C[C@@H]12 :: 100.7
O=C(O)Cc1ccccc1Nc1c(Cl)cccc1Cl :: 102.6
C#C[C@]1(O)CC[C@H]2[C@@H]3CCC4=Cc5oncc5C[C@]4(C)[C@H]3CC[C@@]21C :: 101.9
CN1C(C(=O)Nc2ccccn2)=C(O)c2sc(Cl)cc2S1(=O)=O :: 108.5
Cc1cccc(Nc2ccccc2C(=O)O)c1C :: 111.8
CC(CN1c2ccccc2Sc2ccccc21)N(C)C (centres undefined) :: 101.8
CCOC(=O)[C@H](CCc1ccccc1)N[C@@H](C)C(=O)N1CCC[C@H]1C(=O)O :: 107.8

Let us move to another entry and its Plat.
The recorded Plat for C1CCC(C(CC2CCCCN2)C2CCCCC2)CC1 (centres undefined) is 118.5

====

- Organism: Rattus norvegicus
- assay protocol: Open TG-GATES - Regimen: Single
- Type: toxicity, organism-based, Sprague-Dawley
- Parameters: regimen Single, gender Male, age 6 weeks
- test parameters: in vivo, po, 0 mg/kg, 6 h, tissue Plasma, route gavage, dose level Control
recorded metric: IP
Report field: quantity (unit follows the number).

Reference set (2 entries):
CC(CN1c2ccccc2Sc2ccccc21)N(C)C (stereo not given) :: 9.4 mg/dL
CCOC(=O)[C@H](CCc1ccccc1)N[C@@H](C)C(=O)N1CCC[C@H]1C(=O)O :: 9.9 mg/dL

Let us move to another entry and its IP.
The recorded IP for C1CCC(C(CC2CCCCN2)C2CCCCC2)CC1 (stereo not given) is 9.8 mg/dL

====

- Organism: Rattus norvegicus
- assay protocol: Open TG-GATES - Regimen: Single
- Format: toxicity, organism-based, Sprague-Dawley
- Parameters: regimen Single, gender Male, age 6 weeks
- test parameters: in vivo, po, 0 mg/kg, 3 h, tissue Plasma, route gavage, dose level Control
# reported Ca; entries follow
Respond numerically; units are mg/dL and should not be typed.

CC(CN1c2ccccc2Sc2ccccc21)N(C)C (centres undefined) :: 10.9
CN(C)[C@@H]1C(O)=C(C(N)=O)C(=O)[C@@]2(O)C(O)=C3C(=O)c4c(O)cccc4[C@@](C)(O)[C@H]3C[C@@H]12 :: 11.1
COc1cc([C@@H]2c3cc4c(cc3[C@@H](O[C@@H]3O[C@@H]5CO[C@@H](C)O[C@H]5[C@H](O)[C@H]3O)[C@H]3COC(=O)[C@H]23)OCO4)cc(OC)c1O [ETOPOSIDE] :: 10.4
CCOC(=O)[C@H](CCc1ccccc1)N[C@@H](C)C(=O)N1CCC[C@H]1C(=O)O :: 11
Cc1cccc(Nc2ccccc2C(=O)O)c1C :: 10.9
C1CCC(C(CC2CCCCN2)C2CCCCC2)CC1 (centres undefined) :: 10.9
Clc1c(Cl)c(Cl)c(Cl)c(Cl)c1Cl :: 10.9
CN1C(C(=O)Nc2ccccn2)=C(O)c2sc(Cl)cc2S1(=O)=O :: 10.5

Let us move to another entry and its Ca.
The recorded Ca for CC(=O)Nc1nnc(S(N)(=O)=O)s1 [ACETAZOLAMIDE] is 11.1
